Form field: HSA (one value per entry).
Molecular target: human serum albumin (human) (UniProt P02768)
Sequence (P02768 25-609 limits assumed): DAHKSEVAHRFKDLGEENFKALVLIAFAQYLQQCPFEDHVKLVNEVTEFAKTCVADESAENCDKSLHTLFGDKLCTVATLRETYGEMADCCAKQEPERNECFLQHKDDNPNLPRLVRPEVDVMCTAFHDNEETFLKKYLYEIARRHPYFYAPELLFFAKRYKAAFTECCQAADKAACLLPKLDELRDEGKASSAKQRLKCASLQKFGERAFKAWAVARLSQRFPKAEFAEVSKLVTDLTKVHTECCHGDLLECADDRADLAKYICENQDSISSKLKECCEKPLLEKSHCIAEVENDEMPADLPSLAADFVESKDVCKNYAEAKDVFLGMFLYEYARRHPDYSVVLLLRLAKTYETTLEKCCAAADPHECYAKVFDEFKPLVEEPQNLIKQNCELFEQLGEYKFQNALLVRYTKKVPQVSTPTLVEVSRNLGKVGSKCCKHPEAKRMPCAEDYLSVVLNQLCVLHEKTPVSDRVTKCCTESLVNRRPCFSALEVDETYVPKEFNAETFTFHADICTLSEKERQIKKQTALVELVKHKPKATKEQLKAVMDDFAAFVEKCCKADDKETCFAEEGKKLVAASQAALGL
Assay: screening ELISA
No unit in the answer, only the number.

Example entries begin here.
SEQ ID NO 146 (designed binder) MLPAPKNLVVSRVTEDSARLSWTAPDAAFDSFYIAYAEPRPDGEAIVLTVPGSERSYDLTGLKPGTEYSVLIHGVKGGLLSSPLSAIFTT ... 3800
SEQ ID NO 272 (designed binder) MLPAPKNLVVSRVTEDSARLSWTAPDAAFDSFGIPYAESTPTGEAIVLTVPGSERSYDLTGLKPGTEYSVLIHGVKGGHLSDPLSAIFTT ... 8950

Looking up SEQ ID NO 36 (designed binder) MLPAPKNLVVSRVTEDSARLSWTAPDAAFDSFTITYIEWWENGEAIALSVPGSERSYDLTGLKPGTEYQVGIAGVKGGYKSYPLWALFTT , I see its HSA listed as 6160

Summary for this binder, SEQ ID NO 265 (designed binder) MLPAPKNLVVSRVTEDSARLSWTAPDAAFDSFWIYYIETSHQGEAIVLTVPGSERSYDLTGLKPGTEYFVLIKGVKGGYDSVPLSAIFTT : HSA is 3950
